- Tested on: COLO 205 colon
- Assay comment: NCI tumour cell line growth inhibition, 48 h
Measured attribute: TGI

The following molecules have reported results that may help.
Molecule	TGI
Cn1ccnc1C(=O)/C=C/c1ccc(C(=O)Nc2ccc(S(F)(F)(F)(F)F)cc2)cc1	12.3 µM
O=C(N/N=C(/COc1ccc(Cl)cc1)N=Cc1cccnc1)c1ccncc1	> 100 µM
Cc1cc(NS(=O)(=O)c2ccc(NC(=O)c3ccc4[nH]c5ccccc5c(=O)c4c3)cc2)no1	> 100 µM
CS(=O)(=O)OCC1OC(n2ccc(NC(=O)c3ccccc3)nc2=O)CC1OS(C)(=O)=O (stereo not given)	> 100 µM
CCOc1ccc(NC(=O)C(=O)NO)cc1	> 100 µM

Lab note: each molecule below needs its TGI filled in.
1. Nc1nc(NCCO)c(N=O)c(=O)[nH]1
2. O=[N+]([O-])c1ccccc1N=Nc1c(O)[nH]c2ccc(Br)cc12
3. CC(C)CC[C@H](O)[C@@H](C)[C@H]1[C@@H](OC2OC(C)C(O)C(O)C2O)C[C@H]2[C@@H]3CC=C4C[C@@H](O)CC[C@]4(C)[C@H]3[C@@H](O)C[C@]12C (stereo not given in full)

1: > 100 µM; 2: 33.9 µM; 3: 7.17 µM

Lab note: each molecule below needs its TGI filled in.
1. CN(C)c1ccc(/C=C(\NC(=O)c2ccccc2)C(=O)NCC(=O)O)cc1
2. CC1=NNC(=O)C1C1CC(c2c[nH]c3ccccc23)=NNC1=S (stereo not given)
3. Cc1ccccc1C1OC(=O)c2ccccc21 (stereo not given)
4. COc1cc(-c2cc(=O)c3c(OC)c(OC)c(OC)cc3o2)c(OC)c(OC)c1OC
5. c1ccc2c(c1)Nc1ccccc1[P+]21c2ccccc2Nc2ccccc21

> 100 µM
> 100 µM
> 100 µM
> 75 µM
0.202 µM

Lab note: each molecule below needs its TGI filled in.
1. CCOC(=O)[C@]12C(=C(c3ccccc3)O[C@H]3C=CCC[C@H]31)C(=O)C(=O)N2c1ccccc1
2. CC(C)(C)OC(=O)CC(NC(=O)OC(C)(C)C)C(=O)N[C@@H]1CCCC[C@H]1C(=O)OCc1ccccc1 (stereo not given in full)
3. Cn1c2c(c3ccccc31)CCN(CCN1CCN(c3ccccc3)CC1)C2=O
4. O=C(C[C@H](NC(=O)OCc1ccccc1)C(=O)NC1Cc2ccccc2OC1=O)OCc1ccccc1 (stereo not given in full)
5. CC(C)c1c(C(=O)Nc2ccccc2)c(-c2ccccc2)c(-c2ccc(F)cc2)n1CC[C@@H]1CC=CC(=O)O1
6. COC(=O)CC1C(COC(C)=O)OC(n2cc(C)c(=O)[nH]c2=O)C1OC(C)=O (stereo not given)

1. > 100 µM
2. 38.2 µM
3. > 100 µM
4. > 100 µM
5. 3.5 µM
6. > 100 µM

Fill blank: measured TGI of the molecule Cc1ncc([N+](=O)[O-])n1CCN(C)C(=O)CCCn1ccnc1[N+](=O)[O-] is ____. > 100 µM

====

- Test system: MOLT-4 leukemia
- Assay comment: NCI tumour cell line growth inhibition, 48 h; in the data active = GI50 below about 0.43 µM; inactive = the rest
Give one outcome, nothing more. List: TRUE (active), FALSE (inactive)

Sample answers from the record:
Compound	Target system	Cat
Nc1ccccc1-c1ccc([N+](=O)[O-])cc1	MOLT-4 leukemia	FALSE
COc1ccc(C2CC(c3cccc(Nc4ccncc4)c3)=NN2c2ccc(Cl)cc2)cc1 (centres undefined)	MOLT-4 leukemia	FALSE
COc1cc2c3c(n(CCCN(CCN)CCCn4c5c(c6cc(OC)c(OC)cc6c4=O)C(=O)c4cc6c(cc4-5)OCO6)c(=O)c2cc1OC)-c1cc2c(cc1C3=O)OCO2	MOLT-4 leukemia	TRUE
CCC[CH2][Sn]([CH2]CCC)([O]C(=O)c1cc(F)ccc1F)[O][Sn]([CH2]CCC)([CH2]CCC)[O]C(=O)c1cc(F)ccc1F	MOLT-4 leukemia	TRUE
Cc1ccc(NC(=O)Cc2ccc(/C=C/C(=O)c3ncc[nH]3)cc2)cc1	MOLT-4 leukemia	FALSE
N#Cc1cccc(OCc2nc(N)nc(N)c2-c2ccc(Cl)c(Cl)c2)c1	MOLT-4 leukemia	FALSE

Could you kindly confirm the outcome this assay logged for COC(=O)C1=C(C)NC(C)=C(C(=O)OC)C1/C=C(\Cl)c1ccc(Cl)c(Cl)c1 ? FALSE

Next compound: Oc1ccc(CN2CCC(N3CCOCC3)CC2)c2cccnc12 FALSE

Next compound: Cc1cc(NCCCNc2ccnc3cc(Cl)ccc23)nc(N2CCN(C)CC2)n1 FALSE
